# credit: PubChem BioAssay AID651604

// reported inhibition per item
assay: binders of control antibody PGV04, counter-screen for PG9 antibody binder project, biochemical, TR-FRET, distinct HIV envelope site (AID 651604); conditions: TR-FRET PGV04 antibody-gp120 binding, at 6.7 µM, stronger effect = higher value
The campaign covered roughly 1,500 compounds. About 1,400 (93%) were called active. So high a share suggests a set chosen from earlier hits. Only a sample is shown.
Expressed in %, but write only the number.

Example entries and their recorded answers appear below.
compound: COc1cccc(-n2c(SCC(=O)c3c[nH]c4ccccc34)nc3ccccc3c2=O)c1
result.units: %
data.value: 32.9

compound: O=C(O)CCCCCNc1ncnc2ccc(Br)cc12
result.units: %
data.value: 30.4

compound: CC(=O)c1sc2nc(SCC(=O)N3CCCCC3)[nH]c(=O)c2c1C
result.units: %
data.value: 32.7

Ask: Look up and state reported inhibition for Cc1nc2cc(NC(=O)CSc3nc4c(C)cccc4cc3C#N)ccc2s1
Reply: 59.1

Ask: Give a short answer stating reported inhibition for COc1ccc(-c2csc(NC(=O)c3ccc(N4C(=O)CCC4=O)cc3)n2)cc1OC .
Reply: 20.8

Ask: Give inhibition for the following compound: Cc1cc(Br)ccc1NC(=O)c1sc2ncn(CC(=O)N3CCN(c4ccccn4)CC3)c(=O)c2c1C
Reply: 15.6

Ask: For Fc1cc(F)c2nc(Nc3nc4c(F)cccc4s3)sc2c1 , write its inhibition.
Reply: 15.5

Ask: Read off the recorded inhibition for Cc1ccc(-n2c(SCC(=O)NCCC3=CCCCC3)nc3n[nH]c(C)c3c2=N)cc1Cl
Reply: 27.8

Ask: Identify measured inhibition associated with O=C1COc2ccc(C(=O)COC(=O)c3ccccc3Cl)cc2N1
Reply: 32.6

Ask: Check the records and state inhibition for Cc1c(-c2ccccc2)nc(N)c(C#N)c1-c1cccs1
Reply: 27.9

Ask: Complete the entry with inhibition for N#Cc1c(N)nc2c3c(sc(=N)c2c1N)NC(=O)CC3c1ccccc1Cl (stereo unspecified)
Reply: 37

Ask: Identify the reported inhibition for the following entry. CCOc1cccc(NC(=O)Cn2nc(-c3ccc4c(c3)OCCO4)ccc2=O)c1
Reply: 25.3

Ask: Give the value of inhibition reported for the following: CCOC(=O)c1c(C)[nH]c(C(=O)OCC(=O)c2ccc(OC)cc2OC)c1C
Reply: 54.4

Ask: Output measured inhibition for this item: COc1ccc(CC(=O)Nc2ccc(-c3nnc(-c4ccccc4)o3)cc2)cc1
Reply: 24.6

Ask: Dear colleague, please send me the reported inhibition for COC(=O)C1=C(C)N(Cc2ccccc2C(F)(F)F)C(=NCc2ccc(OC)cc2)NC1c1cccc(C(F)(F)F)c1 (stereo unspecified) when you can.
Reply: 6.34

Ask: Please look at this compound and report its inhibition: COc1cccc(NS(=O)(=O)c2ccc3[nH]cc(C(=O)NCCCOC(C)C)c(=O)c3c2)c1
Reply: 19.8

---

experiment: binders of control antibody PGV04, counter-screen for PG9 antibody binder project, biochemical, TR-FRET, distinct HIV envelope site (AID 651604); settings: TR-FRET PGV04 antibody-gp120 binding, at 6.7 µM, stronger effect = higher value
In all, about 1,500 compounds went through this assay and about 1,400 (93%) were called active. The set was probably picked from earlier hits. Only a sample is shown.
Values of inhibition greater than or equal to 40% map to YES; values below map to NO.

A selection of reference data follows.
compound: COc1ccc(Cl)cc1NC(=O)Cn1nc(-c2ccc(C)cc2)n(C)c1=S
cat: NO
--
compound: CCOc1ccc(C(=O)COC(=O)c2ccc(-n3cnnn3)cc2)cc1
cat: NO
--
compound: O=C(Nc1nnc(-c2ccccc2F)s1)c1ccccc1F
cat: NO
--
compound: CCOc1ccc2cc(C#N)c(SCC(=O)OC)nc2c1
cat: YES
--
compound: C=CCOc1cccc(C2C(C(=O)c3ccc(C)o3)=C(O)C(=O)N2CCCn2ccnc2)c1 (configuration not stated)
cat: NO
--
compound: Cc1nc2nc(SCC(=O)c3ccccc3)[nH]c2cc1Br
cat: YES
--
compound: Cc1cc(C)cc(NC(=O)C2CCCN(S(=O)(=O)c3ccc4[nH]c(=O)ccc4c3)C2)c1 (configuration not stated)
cat: NO
--
compound: CC(C)OCCCNC(=O)c1cc(Sc2ccc(F)cc2)nc2ccccc12
cat: NO
--
compound: Cc1cccc(Nc2nc3c(S(=O)(=O)c4ccccc4)nnn3c3ccccc23)c1C
cat: NO
--
compound: CCc1ccc(NC(=O)CSc2nnc(-c3cnccn3)n2Cc2ccco2)cc1
cat: NO

Ask: Could you tell me if the measured inhibition of N#C/C=C1\Sc2ccccc2C(=O)N1CC(=O)N1CCN(S(=O)(=O)c2ccccc2)CC1 reaches 40% or more?
Reply: NO

Ask: Say whether N#Cc1c(-c2cccs2)nc(SCC(=O)c2ccc(Br)cc2)[nH]c1=O shows inhibition of 40% or more.
Reply: NO

Ask: Threshold query (inhibition >= 40%) on O=C1C(=O)N(CCN2CCOCC2)C(c2cccc(Cl)c2)/C1=C(/O)c1ccc2c(c1)OCO2 (configuration not stated)
Reply: YES

Ask: Please check the record COC(=O)c1ccc(NC(=S)Nc2cccc(C)n2)cc1 and state if its inhibition is at or above 40%.
Reply: NO

Ask: Dear colleague, could you confirm whether O=C(NCc1ccc(Cl)cc1)c1cc2c(nc3sccn32)s1 has inhibition at or above 40%?
Reply: NO

Ask: Is it the case that CCCOc1ccc(C2C(C(=O)c3ccc(C)o3)=C(O)C(=O)N2CCCn2ccnc2)cc1 (configuration not stated) has inhibition reaching or exceeding 40%?
Reply: YES

---

Each item that follows carries a reported inhibition.
assay: binders of control antibody PGV04, counter-screen for PG9 antibody binder project, biochemical, TR-FRET, distinct HIV envelope site (AID 651604); conditions: TR-FRET PGV04 antibody-gp120 binding, at 6.7 µM, stronger effect = higher value
Screen size: about 1,500 compounds; about 1,400 (93%) were called active. So high a share suggests a set chosen from earlier hits. These entries were drawn from the full list.
Give the value in % but do not write % after it.

compound: CCn1c(SCC(=O)Nc2cccc(F)c2)nnc1-c1cc2cc(Br)ccc2o1
result.units: %
inhibition: 58.4
//
compound: N#Cc1ccccc1Sc1ccccc1C(=O)OCC(=O)NC1CCCCC1
result.units: %
inhibition: 45.7
//
compound: CC(=O)c1cc(C#N)c(SCC(=O)Nc2nccs2)nc1C
result.units: %
inhibition: 51.4
//
compound: O=C(C1=C(O)C(=O)N(Cc2ccccc2)C1c1ccco1)c1ccco1 (stereo unspecified)
result.units: %
inhibition: 39.4
//
compound: C=CCn1c(=NC(=O)c2ccc(S(=O)(=O)N3CCCC3)cc2)sc2cc(NC(C)=O)ccc21
result.units: %
inhibition: 43

Ask: Note inhibition for the compound shown: C=CCn1c(=NC(=O)c2cccs2)sc2cc(NC(C)=O)ccc21
Reply: 12.5
